Cited source: patent US20200216416A1

target: human MET kinase del Ex14 (Homo sapiens, UniProt P08581, DEL963-1009); construct: GST-tagged recombinant human MET kinase domain; assay: c-Met Enzyme Assay, del Ex14 mutant; details: averaged IC50; del Ex14 5 nM; 60-minute incubation at 22° C.; read-out: Del14 IC50
Sequence (P08581 with tags, fused parts or gaps DEL963-1009 limits assumed): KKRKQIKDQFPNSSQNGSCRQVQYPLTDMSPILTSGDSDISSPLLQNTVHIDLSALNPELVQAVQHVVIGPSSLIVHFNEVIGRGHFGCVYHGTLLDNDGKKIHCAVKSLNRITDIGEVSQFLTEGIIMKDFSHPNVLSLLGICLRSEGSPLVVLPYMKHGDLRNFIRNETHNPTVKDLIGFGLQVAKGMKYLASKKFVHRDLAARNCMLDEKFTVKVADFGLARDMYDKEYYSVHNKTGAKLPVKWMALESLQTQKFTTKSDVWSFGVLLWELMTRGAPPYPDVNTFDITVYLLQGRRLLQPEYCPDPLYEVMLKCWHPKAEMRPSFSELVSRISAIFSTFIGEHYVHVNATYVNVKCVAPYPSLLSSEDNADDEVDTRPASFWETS
pIC50: −log10 of the molar value.
measurement_name: pIC50

(A) COc1cc2nccc(Oc3ccc(NC(=O)c4cn(C(C)C)cc(-c5ccc(F)cc5OC)c4=O)nc3)c2cc1OC
(B) CCOc1ccc2nccc(Oc3ccc(NC(=O)c4cn(C(C)C)cc(-c5ccc(F)cc5)c4=O)nc3)c2c1
(C) COc1cc2nccc(Oc3ccc(NC(=O)c4cn(C(C)C)c(C)c(-c5ccc(F)cc5)c4=O)nc3)c2cc1OC
Ask | List these items ordered by pIC50, big to small. The response must list the labels following the requested ordering.
Reply | C, A, B

---

target: human MET kinase del Ex14 (Homo sapiens, UniProt P08581, DEL963-1009); construct: GST-tagged recombinant human MET kinase domain; assay: c-Met Enzyme Assay, del Ex14 mutant; conditions: averaged IC50; del Ex14 5 nM; 60-minute incubation at 22° C.; read-out: Del14 IC50
measurement_name: IC50 (nM)

(A) COc1cc2nccc(Oc3ccc(NC(=O)c4cn(CC5CCOCC5)cc(-c5ccc(F)cc5)c4=O)nc3)c2cc1OC
(B) COc1ccc(-c2cn(C(C)C)cc(C(=O)Nc3ccc(Oc4ccnc5cc(OC)c(OC)cc45)cn3)c2=O)cc1
Ask | Between item A and item B , which reported IC50 is smaller? // caller expects the label of the chosen entry
Reply | A
(A: 3.9 nM, B: 50.3 nM)

---

target: human MET kinase Y1230H (Homo sapiens, UniProt P08581, Y1230H); construct: GST-tagged recombinant human MET kinase domain; assay: c-Met Enzyme Assay, Y1230H mutant; conditions: averaged IC50; Y1230H 5 nM; 60-minute incubation at 22° C.; read-out: Y1230 H IC50
Sequence (P08581 1078-1345 Y1230H): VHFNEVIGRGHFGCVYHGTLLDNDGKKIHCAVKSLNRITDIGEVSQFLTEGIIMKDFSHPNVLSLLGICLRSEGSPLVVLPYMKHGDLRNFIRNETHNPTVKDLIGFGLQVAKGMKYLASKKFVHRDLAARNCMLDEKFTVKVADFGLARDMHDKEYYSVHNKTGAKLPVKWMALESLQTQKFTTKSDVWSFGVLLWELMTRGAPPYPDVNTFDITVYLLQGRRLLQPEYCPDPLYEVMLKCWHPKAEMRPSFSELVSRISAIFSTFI
measurement_name: IC50 (nM)

Sample records with IC50:
{"compound": "CCOc1ccc2nccc(Oc3ccc(NC(=O)c4cn(C(C)C)cc(-c5ccc(F)cc5)c4=O)nc3)c2c1 [Example 51]", "measurement_name": "IC50", "value_unit": "nM", "assay_value": 200}
{"compound": "COc1cc2nccc(Oc3ccc(NC(=O)c4cn(C(C)C)c(C)c(-c5ccc(F)c(F)c5)c4=O)nc3)c2cc1OC [Example 28]", "measurement_name": "IC50", "value_unit": "nM", "assay_value": 7.8}
{"compound": "COc1cc(-c2cn(C(C)C)cc(C(=O)Nc3ccc(Oc4ccnc5cc(OC)c(OC)cc45)cn3)c2=O)ccc1F [Example 20]", "measurement_name": "IC50", "value_unit": "nM", "assay_value": 9.9}
{"compound": "COc1cc2nccc(Oc3ccc(NC(=O)c4cn(CC(=O)N(C)C)cc(-c5ccc(F)c(F)c5)c4=O)nc3)c2cc1OC [Example 24]", "measurement_name": "IC50", "value_unit": "nM", "assay_value": 22.7}
{"compound": "CCC(CC)n1cc(C(=O)Nc2ccc(Oc3ccnc4cc(OC)c(OC)cc34)cn2)c(=O)c(-c2ccc(F)cc2F)c1 [Example 16]", "measurement_name": "IC50", "value_unit": "nM", "assay_value": 7.7}

(a) COc1cc2c(Oc3ccc(NC(=O)c4cn(C(C)C)cc(-c5ccc(F)cc5)c4=O)nc3)ccnc2cc1F [Example 49]
(b) COc1cc2nccc(Oc3ccc(NC(=O)c4cn(CCC(C)C)cc(-c5ccc(F)cc5F)c4=O)nc3)c2cc1OC [Example 36]
Ask | Between item a and item b , which reported IC50 is smaller? // caller expects the label of the chosen entry
Reply | b

---

biological target: human MET kinase Y1230C (Homo sapiens, UniProt P08581, Y1230C); construct: GST-tagged recombinant human MET kinase domain; assay: c-Met Enzyme Assay, Y1230C mutant; details: averaged IC50; Y1230C 2 nM; 60-minute incubation at 22° C.; read-out: Y1230 C IC50
Sequence (P08581 1078-1345 Y1230C): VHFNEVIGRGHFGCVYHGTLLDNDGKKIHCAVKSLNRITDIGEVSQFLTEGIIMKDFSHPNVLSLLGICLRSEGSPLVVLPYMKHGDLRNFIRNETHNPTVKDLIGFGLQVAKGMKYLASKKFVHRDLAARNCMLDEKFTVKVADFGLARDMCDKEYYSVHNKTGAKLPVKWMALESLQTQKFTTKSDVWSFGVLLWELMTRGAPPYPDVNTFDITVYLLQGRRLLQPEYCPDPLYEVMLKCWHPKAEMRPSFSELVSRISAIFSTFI
pIC50: −log10 of the molar value.
measurement_name: pIC50

{"compound": "COc1cc2nccc(Oc3ccc(NC(=O)c4cn(CCC(C)C)cc(-c5ccc(F)cc5F)c4=O)nc3)c2cc1OC [Example 36]", "pIC50": 8.55}
{"compound": "COc1cc2nccc(Oc3ccc(NC(=O)c4cn(CCN(C)C)cc(-c5ccc(F)cc5)c4=O)nc3)c2cc1OC [Example 46]", "pIC50": 8.77}

(I) CCc1c(-c2ccc(F)cc2)c(=O)c(C(=O)Nc2ccc(Oc3ccnc4cc(OC)c(OC)cc34)cn2)cn1C(C)C [Example 29]
(II) COc1cc2nccc(Oc3ccc(NC(=O)c4cn(CCC(C)C)cc(-c5ccc(F)c(F)c5)c4=O)nc3)c2cc1OC [Example 35]
Ask | Between I and II , whose recorded pIC50 is greater? // caller expects the label of the chosen entry
Reply | I

---

target: human MET kinase F1200I (Homo sapiens, UniProt P08581, F1200I); construct: GST-tagged recombinant human MET kinase domain; assay: c-Met Enzyme Assay, F1200I mutant; conditions: averaged IC50; F1200I 2 nM; 60-minute incubation at 22° C.
Sequence (P08581 1078-1345 F1200I limits assumed): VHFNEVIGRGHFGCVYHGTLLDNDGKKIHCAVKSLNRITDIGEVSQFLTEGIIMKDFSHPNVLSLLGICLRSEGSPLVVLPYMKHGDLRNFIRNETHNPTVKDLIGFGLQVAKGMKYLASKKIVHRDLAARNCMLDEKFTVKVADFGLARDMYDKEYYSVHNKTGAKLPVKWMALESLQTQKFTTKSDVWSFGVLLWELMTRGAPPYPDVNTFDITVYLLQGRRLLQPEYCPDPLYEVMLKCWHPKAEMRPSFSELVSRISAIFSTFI
measurement_name: IC50 (µM)

{"compound": "COc1cc2nc(C)cc(Oc3ccc(NC(=O)c4cn(C(C)C)cc(-c5ccc(F)cc5)c4=O)nc3)c2cc1OC [Example 53]", "measurement_target": "human MET kinase F1200I (Homo sapiens, UniProt P08581, F1200I)", "assay_value": 3.69}

(A) CCCC(CCC)n1cc(C(=O)Nc2ccc(Oc3ccnc4cc(OC)c(OC)cc34)cn2)c(=O)c(-c2ccc(F)cc2F)c1 [Example 17]
(B) COc1cc2nccc(Oc3ccc(NC(=O)c4cn(C5CCOCC5)cc(-c5ccc(F)cc5)c4=O)nc3)c2cc1OC [Example 12]
(C) COc1cc2nccc(Oc3ccc(NC(=O)c4cn(C(C)C)cc(-c5ccc(F)cc5F)c4=O)nc3)c2cc1OC [Example 4]
Ask | In this exercise, place the 3 compounds in ascending sequence of their recorded IC50. The response must list the labels following the requested ordering.
Reply | C, B, A

---

biological target: MDR1 (P-gp) (Homo sapiens, UniProt P08183); construct: expressed in transfected cells; host or cells: LLC-PK1; assay: MDR1 LLC-PK1 permeability assay; format: in vitro ADME; settings: pig; permeability coefficient (Papp), MDR1 transfected LLC-PK1 cells
Sequence (P08183 whole entry): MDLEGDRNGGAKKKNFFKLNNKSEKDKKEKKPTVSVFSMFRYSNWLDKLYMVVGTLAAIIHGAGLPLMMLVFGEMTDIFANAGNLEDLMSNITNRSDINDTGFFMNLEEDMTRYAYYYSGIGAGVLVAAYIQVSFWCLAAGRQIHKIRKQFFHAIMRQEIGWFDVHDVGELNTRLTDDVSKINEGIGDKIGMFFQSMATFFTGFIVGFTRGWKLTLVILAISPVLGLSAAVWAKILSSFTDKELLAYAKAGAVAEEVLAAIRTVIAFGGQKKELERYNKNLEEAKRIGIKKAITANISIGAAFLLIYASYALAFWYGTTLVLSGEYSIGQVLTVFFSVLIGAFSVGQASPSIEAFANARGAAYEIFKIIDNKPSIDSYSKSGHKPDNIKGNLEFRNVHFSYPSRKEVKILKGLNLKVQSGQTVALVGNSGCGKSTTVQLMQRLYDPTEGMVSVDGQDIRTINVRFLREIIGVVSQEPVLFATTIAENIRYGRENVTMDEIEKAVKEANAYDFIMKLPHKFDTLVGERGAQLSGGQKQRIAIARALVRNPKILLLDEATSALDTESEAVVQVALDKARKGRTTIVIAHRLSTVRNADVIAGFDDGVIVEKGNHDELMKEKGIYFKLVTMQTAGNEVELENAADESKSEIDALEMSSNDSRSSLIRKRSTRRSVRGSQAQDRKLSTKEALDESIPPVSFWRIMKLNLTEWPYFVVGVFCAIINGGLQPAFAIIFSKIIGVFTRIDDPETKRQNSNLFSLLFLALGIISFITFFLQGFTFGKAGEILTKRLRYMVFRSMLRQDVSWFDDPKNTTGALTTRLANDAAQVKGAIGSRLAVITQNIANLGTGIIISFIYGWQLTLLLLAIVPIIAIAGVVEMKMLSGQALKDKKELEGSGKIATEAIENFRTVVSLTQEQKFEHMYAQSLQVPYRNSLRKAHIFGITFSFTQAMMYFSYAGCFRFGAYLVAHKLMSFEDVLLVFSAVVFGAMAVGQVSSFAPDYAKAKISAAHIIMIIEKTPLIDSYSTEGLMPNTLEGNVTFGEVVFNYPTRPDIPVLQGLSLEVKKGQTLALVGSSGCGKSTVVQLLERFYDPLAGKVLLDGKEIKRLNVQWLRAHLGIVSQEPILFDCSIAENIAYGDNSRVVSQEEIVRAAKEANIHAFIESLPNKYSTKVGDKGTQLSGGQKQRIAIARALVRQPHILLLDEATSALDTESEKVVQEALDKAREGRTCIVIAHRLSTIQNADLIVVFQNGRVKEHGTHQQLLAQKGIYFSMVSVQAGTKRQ
measurement_name: Papp at 2 h, 1 μM (×10⁻⁶ cm/s)

(A) COc1cc2nccc(Oc3ccc(NC(=O)c4cn(CC(=O)N(C)C)cc(-c5ccc(F)cc5F)c4=O)nc3)c2cc1OC [Example 13]
(B) COc1cc2nccc(Oc3ccc(NC(=O)c4cn(C(C)C)cc(-c5ccc(F)cc5)c4=O)nc3)c2cc1OC [Example 1]
(C) COc1cc2nccc(Oc3ccc(NC(=O)c4cn(C(C)C)cc(-c5ccc(F)c(Cl)c5)c4=O)nc3)c2cc1OC [Example 21]
Ask | Endpoint returns the given molecules ordered by ascending Papp at 2 h, 1 μM. The response must list the labels following the requested ordering.
Reply | C, A, B
(C: 1.2 ×10⁻⁶ cm/s, A: 6 ×10⁻⁶ cm/s, B: 10 ×10⁻⁶ cm/s)

---

molecular target: human MET kinase D1228H (Homo sapiens, UniProt P08581, D1228H); construct: GST-tagged recombinant human MET kinase domain; experiment: c-Met Enzyme Assay, D1228H mutant; conditions: averaged IC50; D1228H 2 nM; 60-minute incubation at 22° C.; read-out: D1228 H IC50
Sequence (P08581 1078-1345 D1228H): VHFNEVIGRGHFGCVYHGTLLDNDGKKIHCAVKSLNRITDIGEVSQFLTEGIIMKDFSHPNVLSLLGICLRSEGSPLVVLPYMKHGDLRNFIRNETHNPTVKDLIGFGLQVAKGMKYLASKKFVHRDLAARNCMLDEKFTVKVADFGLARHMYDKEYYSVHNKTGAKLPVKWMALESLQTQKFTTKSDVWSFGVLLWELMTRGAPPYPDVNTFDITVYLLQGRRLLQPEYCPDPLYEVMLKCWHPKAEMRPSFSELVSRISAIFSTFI
measurement_name: IC50 (nM)

Sample records with IC50:
{"smiles_representation": "COc1cc2c(Oc3ccc(NC(=O)c4cn(C(C)C)cc(-c5ccc(F)cc5)c4=O)nc3)ccnc2cc1OCCCN1CCOCC1", "measurement_target": "human MET kinase D1228H (Homo sapiens, UniProt P08581, D1228H)", "value_unit": "nM", "IC50": 1.9}
{"smiles_representation": "COc1ccc2nccc(Oc3ccc(NC(=O)c4cn(CCN(C)C)cc(-c5ccc(F)cc5)c4=O)nc3)c2c1", "measurement_target": "human MET kinase D1228H (Homo sapiens, UniProt P08581, D1228H)", "value_unit": "nM", "IC50": 31.1}
{"smiles_representation": "CCCC(CCC)n1cc(C(=O)Nc2ccc(Oc3ccnc4cc(OC)c(OC)cc34)cn2)c(=O)c(-c2ccc(F)cc2F)c1", "measurement_target": "human MET kinase D1228H (Homo sapiens, UniProt P08581, D1228H)", "value_unit": "nM", "IC50": 13.3}

(I) COc1cc2nccc(Oc3ccc(NC(=O)c4cn(C(C)C)cc(-c5ccc(Cl)cc5)c4=O)nc3)c2cc1OC
(II) COc1cc2ncc(C#N)c(Oc3ccc(NC(=O)c4cn(C(C)C)cc(-c5ccc(F)cc5)c4=O)nc3)c2cc1OC
(III) CCn1cc(C(=O)Nc2ccc(Oc3ccnc4cc(OC)c(OC)cc34)cn2)c(=O)c(-c2ccc(F)cc2)c1
(IV) COCCn1cc(C(=O)Nc2ccc(Oc3ccnc4cc(OC)c(OC)cc34)cn2)c(=O)c(-c2ccc(F)cc2)c1
Ask | Falling order of IC50, please. The response must list the labels following the requested ordering.
Reply | II, I, III, IV
(II: 532 nM, I: 9.6 nM, III: 4.7 nM, IV: 2 nM)
